# measured on: T1, soluble form of GPC3 core protein (human, UniProt P51654 25-563)
# T1 construct: not shown: His tag added to the C-terminus
# assay comment: competitive ELISA on coated soluble GPC3 core protein; labelled competitor biotin-M3C11;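 note: Biotin-labelled antibody added as 10 µL at 10 µg/mL for 1 h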
reported metric: Inhibition of the binding of indicated biotin-Mab to sGPC3 core (%)
Write the value in % as a bare number.

Using the record for M6B1 (antibody, V domains shown, Mouse monoclonal from hybridoma) VH: EVQLVESGGDLVKPGGSLKLSCAASGFTFSSYAMSWVRQTPEKRLEWVAAINSNGGTTYYPDTMKDRFTISRDNAKNTLYLQMSSLRSEDSALYYCTRHNGGYENYGWFAYWGQGTLVTVSA VL: DIQMTQSPSSLSASLGGKVTITCKASQDINKNIIWYQHKPGKGPRLLIWYTSTLQPGIPSRFSGSGSGRDYSFSISNLEPEDIATYYCLQYDNLPRTFGGGTKLEIK , report its Inhibition of the binding of indicated biotin-Mab to sGPC3 core (%).
-5.7

Reference source: patent US20100248359A1
